tested.on: T1, TNFR1 (Homo sapiens, UniProt P19438)
T1 chain: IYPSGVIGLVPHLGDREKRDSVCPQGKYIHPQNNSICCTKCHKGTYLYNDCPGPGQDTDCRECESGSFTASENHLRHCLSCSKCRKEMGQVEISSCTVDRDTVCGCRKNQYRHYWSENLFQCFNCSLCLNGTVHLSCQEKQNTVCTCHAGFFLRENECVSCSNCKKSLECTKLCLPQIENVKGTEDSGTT
procedure.text: yeast display SC50
outcome.measure: apparent Kd (screen) (nM)

| binder | outcome.measure | measured.value |
| --- | --- | --- |
| A42G (designed binder) MTLQELLREEALRRAEAEAFRYALELLAEKFPEQKEYLLDLGEEIESQIRSLSGVDVEDVRKFLDKEWAWVKELLAEHPAELAEVEAARAARLAELRAEVEAKVAA | apparent Kd (screen) | 0.49 |
| Y22F (designed binder) MTLQELLREEALRRAEAEAFRFALELLAEKFPEQKEYLLDLAEEIESQIRSLSGVDVEDVRKFLDKEWAWVKELLAEHPAELAEVEAARAARLAELRAEVEAKVAA | apparent Kd (screen) | 0.49 |
| R61I (designed binder) MTLQELLREEALRRAEAEAFRYALELLAEKFPEQKEYLLDLAEEIESQIRSLSGVDVEDVIKFLDKEWAWVKELLAEHPAELAEVEAARAARLAELRAEVEAKVAA | apparent Kd (screen) | 0.539 |
| E99Q (designed binder) MTLQELLREEALRRAEAEAFRYALELLAEKFPEQKEYLLDLAEEIESQIRSLSGVDVEDVRKFLDKEWAWVKELLAEHPAELAEVEAARAARLAELRAQVEAKVAA | apparent Kd (screen) | 0.539 |

src = paper PMC12416549
